Assignment: determine reported glycan array binding signal (z-score) for the given binders.
Molecular target: Neu5Ac(a2-8)Neu5Ac(a2-3)[Gal(b1-3)GalNAc(b1-4)]Gal(b1-4)Glc
Experiment: glycan array binding signal (z-score within array); higher = stronger binding
Details: glycan notation: IUPAC condensed, linker removed
Many of the other results were omitted from the sample, so the strongest signals are more common in it than they were.
Answers are plain numbers.

Example cases with answers are listed next.
Recorded glycan array binding signal (z-score) of CTAEGIKKFEGDGYELFKDNFPAGEKFDNDDTNDQFYTVIF [MUB40 (Lactobacillus reuteri)] , please.
-0.27

Sample TAL6-4LysM (Trichoderma atroviride) (protein) AADSIPSISPTGIITPTPTQSGMVSNCNKFYDVHSNDGCSAIASSQHVDLSSLYKWNPAIKTDCSGLQASVYVCIGILTTSMSTTSKLPTTTSKPSTTSKPPTGITTPTPTQSGMVKNCNKFYDVHSGDGCSAIASSQKVNLSSFYLWNPAVKTDCSGLQASVFVCIGTLTTSMSTTTSKLPTTTSKPSTTSKPPTGIITPTPTQNGMVKNCNKFYDVHSGDGCSAIASSQKVNLSSFYLWNPAVKTDCSGLQASVFVCVGTATTTTAAGITTPTPTQSGMVSGCNKFYDVHAGDGCSAIASSQKIALSSLYKWNPAVKTDCSGLQASVYICIGVGNAAAARVTGALEQKLISEEDLNSAVDHHHHHH — what was its glycan array binding signal (z-score)?
-0.586

Could you now look at the following binder, please?
What does the data say about its glycan array binding signal (z-score)? Entry: SP15308A-bot-339-19-339 (Bacteroides ovatus) (protein) ACNNEWEDEQYEQYISFKSPIPAGGEGVTDIYVRYKEDGKVTYRLPIVVSGSTTNTLDREVHIAVDKDTLETLNIERFSIHRPGLWYTALEEDKYDFPKTVHISAGSSVEQLNIDFNLQGIDMLEKWVLPLTIVDDPSYNYKSHPRKNYAKALLRVIPFNNYSGSYTSSAMKVYTYINGKPDTNARTANKRTGYVINDNTVFFYAGLISEDLDKEVREKYKINVHFNEDGTLHMEQGDPTNKMKFELIGTPTYSKTSVMDATRPYLERRYVQIMFEYDFEDFSYGGNGVDVIPIKYKVEGSMTLQRNINTQIPDEDQQIEW
-0.083
